Each entry below carries its reported IC50.
- subjectOfTest: Human GO (Homo sapiens, UniProt Q9UJM8)
- Construct: purchased Novus Biologicals NBP1-72412
- assayProtocol: GO enzymatic assay (coupled fluorescence/HRP assay, glycolate substrate)
- Format: biochemical
- conditionDetails: Table 2; read-out: Range (range of IC50 values calculated from the enzymatic assays)
measure: IC50

compound | reportedMeasurement
O=C(O)c1[nH]nnc1OC1CCN(c2cc(Cl)ccc2Cl)CC1 [Compound 291, 2,2,2-trifluoroacetate] | < 100 nM
O=C(O)c1[nH]nnc1O[C@H]1CC[C@@H](c2ccc(N3CCC(F)(F)CC3)cc2)CC1 [Compound 368, 2,2,2-trifluoroacetate] | < 100 nM
O=C(O)c1[nH]nnc1OC1CCN(c2ccc(Cl)cc2)CC1 [Compound 270, 2,2,2-trifluoroacetate] | < 100 nM
CC(C)(C)OC(=O)N1CCCCC1C(=O)OCn1nnc(Oc2ccc(Cl)c(Cl)c2)c1C(=O)O (centres unmarked) [Compound 240] | 1000 to 10000 nM
CC(C)C(=O)OCOC(=O)c1[nH]nnc1O[C@H]1CC[C@H](c2ccc(OC(F)(F)F)cc2)CC1 [Compound 307] | 1000 to 10000 nM
O=C(OCOC(=O)c1[nH]nnc1OC1CCc2cc(Cl)c(Cl)cc2C1)c1ccccc1 (centres unmarked) [Compound 261] | 1000 to 10000 nM
O=C(O)c1[nH]nnc1SCc1ccc(Cl)c(Cl)c1 [Compound 176] | < 100 nM
CC(C)C(=O)OCOC(=O)c1[nH]nnc1Oc1ccc2cc(Cl)ccc2c1 [Compound 239] | 100 to 1000 nM

----------
- subjectOfTest: Human GO (Homo sapiens, UniProt Q9UJM8)
- Construct: purchased Novus Biologicals NBP1-72412
- Sequence (Q9UJM8 1-370): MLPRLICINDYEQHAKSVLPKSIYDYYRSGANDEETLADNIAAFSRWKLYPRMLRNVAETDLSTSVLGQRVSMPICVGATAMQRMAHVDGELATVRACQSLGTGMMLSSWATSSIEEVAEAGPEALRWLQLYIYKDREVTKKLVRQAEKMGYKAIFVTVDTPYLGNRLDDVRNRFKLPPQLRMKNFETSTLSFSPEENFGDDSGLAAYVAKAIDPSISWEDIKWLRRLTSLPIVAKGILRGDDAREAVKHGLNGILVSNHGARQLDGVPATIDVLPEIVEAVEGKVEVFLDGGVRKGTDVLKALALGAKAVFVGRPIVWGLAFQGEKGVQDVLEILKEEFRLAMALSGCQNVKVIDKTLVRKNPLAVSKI
- assayProtocol: GO enzymatic assay (coupled fluorescence/HRP assay, glycolate substrate)
- Assay type: biochemical
- conditionDetails: Table 1; read-out: Range (range of IC50 values calculated from the enzymatic assays)
Each entry below carries its reported IC50.

molecule | IC50
O=C(O)c1[nH]nnc1Oc1ccc(-c2cccc(C(=O)N3CCCCC3)c2)cc1 [Compound 157, 2,2,2-trifluoroacetate] | < 100 nM
O=C(OC1CC1)c1[nH]nnc1Nc1ccc(-c2ccc(OC(F)(F)F)cc2)cc1 [Compound 72, 2,2,2-trifluoroacetate] | > 10000 nM
O=C(O)c1[nH]nnc1Sc1ccc(-c2ccc(Cl)cc2)cc1Cl | < 100 nM
CN1CCN(c2cccc(Sc3[nH]nnc3C(=O)O)c2)CC1 [Compound 6, 2,2,2-trifluoroacetate] | > 10000 nM
COC(=O)c1[nH]nnc1Nc1ccc(-c2ccc(OC(F)(F)F)cc2)cc1 | > 10000 nM
O=C(O)c1[nH]nnc1Sc1ccc(-c2cccc(N3CCCCC3)c2)cc1 [Compound 164, 2,2,2-trifluoroacetate] | < 100 nM
COC(=O)c1[nH]nnc1Sc1nc(-c2ccc(Cl)c(Cl)c2)cs1 | > 10000 nM
O=C(OC1CC1)c1[nH]nnc1Oc1ccc(Cl)c(Cl)c1 | > 10000 nM
O=C(O)c1[nH]nnc1Sc1csc(-c2ccc(Cl)cc2Cl)n1 | < 100 nM
CN(c1ccc(-c2ccc(Cl)cc2)cc1)c1nn[nH]c1C(=O)O [Compound 75, 2,2,2-trifluoroacetate] | 100 to 1000 nM
O=C(O)c1[nH]nnc1-c1csc(-c2ccc(Cl)c(Cl)c2)n1 | < 100 nM
O=C(O)c1[nH]nnc1Sc1ccc(-c2ccc(Cl)cc2)c(Cl)c1 | < 100 nM
O=C(O)c1[nH]nnc1-c1ccc(OC(F)(F)F)cn1 [Compound 145, 2,2,2-trifluoroacetate] | 1000 to 10000 nM
COC(=O)c1[nH]nnc1Sc1csc(-c2ccc(OC(F)(F)F)c(Cl)c2)n1 | > 10000 nM
CCOc1ccc2sc(Sc3nn[nH]c3C(=O)O)nc2c1 | 100 to 1000 nM
CC(C)(C)C(=O)OCOC(=O)c1[nH]nnc1Oc1ccc(Cl)c(Cl)c1 | 1000 to 10000 nM
O=C(O)c1[nH]nnc1Sc1ccc(-c2ccc(Cl)c(Cl)c2)cc1 | < 100 nM
O=C(O)c1[nH]nnc1Sc1ccc(-c2cccc(OC(F)(F)F)c2Cl)cc1 | < 100 nM
O=C(O)c1[nH]nnc1C1CCc2ccccc2C1 (stereo not shown) [Compound 141, 2,2,2-trifluoroacetate] | 100 to 1000 nM
O=C(O)c1[nH]nnc1Sc1cccc(-c2ccc(OC(F)(F)F)cc2)c1 | < 100 nM
O=C(O)c1[nH]nnc1Oc1ccc2cc(Br)ccc2c1 | < 100 nM
O=C(O)c1[nH]nnc1Nc1nc(-c2ccc(OC(F)(F)F)c(Cl)c2)cs1 | < 100 nM
COc1ccc(-c2ccc(Sc3nn[nH]c3C(=O)O)cc2)cc1 | < 100 nM
CN(c1csc(-c2ccc(Cl)c(Cl)c2)n1)c1nn[nH]c1C(=O)O | 100 to 1000 nM
O=C(O)c1[nH]nnc1C(=O)N1Cc2ccc(Cl)cc2C1 | 1000 to 10000 nM
O=C(O)c1[nH]nnc1Sc1ccc(-c2ccc(Cl)c(OC(F)(F)F)c2)cc1 | < 100 nM
O=C(O)c1[nH]nnc1-c1ccc(-c2ccc(OC(F)(F)F)cc2)c(Cl)c1 [Compound 139, 2,2,2-trifluoroacetate] | 100 to 1000 nM
CC(C)C(=O)OCOC(=O)c1[nH]nnc1Sc1ccc(-c2ccc(OC(F)(F)F)cc2)cc1 | 100 to 1000 nM
Cn1c(Sc2nn[nH]c2C(=O)O)cnc1-c1ccc(Cl)c(Cl)c1 [Compound 35, 2,2,2-trifluoroacetate] | 100 to 1000 nM
O=C(O)c1[nH]nnc1Oc1ccc2cnccc2c1 [Compound 121, 2,2,2-trifluoroacetate] | 100 to 1000 nM
O=C(O)c1[nH]nnc1Sc1cccc(-c2ccc(Cl)c(Cl)c2)n1 | < 100 nM
O=C(O)c1[nH]nnc1-c1nccc2ccc(Cl)cc12 | > 10000 nM
O=C(O)c1[nH]nnc1Oc1ccc2cccnc2c1 [Compound 113, 2,2,2-trifluoroacetate] | < 100 nM
O=C(O)c1[nH]nnc1NC1CCCN(c2ccc(OC(F)(F)F)cc2)C1 (stereo not shown) | 100 to 1000 nM
